tested on: HL-60(TB) leukemia; assay: NCI-60 one-dose screen, 48 h (100 = growth as untreated, 0 = no growth, -100 = all killed); conditions: 10 µM unless noted
The panel holds about 83,000 compounds, 20% with a hit somewhere; the sample as a whole holds those more often. The source made the active and inactive calls. The calls were made as follows: active = growth percent below 10; inactive = the rest.
Give growth for every item shown.

Request the reported growth associated with Cc1ccc(O)c(NC(=O)c2cccc(Nc3ccnc(C(F)(F)F)c3)c2)c1
-11.8% (active)

Request the reported growth associated with CS(=O)(=O)c1ccc(C(=O)N2N=C(c3ccccc3)CC2c2ccc3c(c2)OCO3)cc1 (centres undefined)
37% (inactive)

Request the reported growth associated with CCOC(=O)CC1C(COC(=O)NC)OC(n2cnc3c(NC(=O)Nc4ccccc4)ncnc32)C1O[Si](C)(C)C(C)(C)C (centres undefined)
23.5% (inactive)

Request the reported growth associated with COc1c(OCCCN2CCOCC2)ccc2c3n(c(=NC(=O)c4cnc(N)nc4)nc12)CCN3
11.3% (inactive)

Request the reported growth associated with O=C(Nc1cccc(-n2cc(-c3ccncc3)c(-c3ccc(Cl)c(O)c3)n2)c1)Nc1cc(C(F)(F)F)cc(C(F)(F)F)c1
-18.3% (active)

Request the reported growth associated with NS(=O)(=O)c1ccc(CN=C2NC(=O)S/C2=C\c2ccc(Br)cc2)cc1
97.5% (inactive)

Request the reported growth associated with CN(C)c1ccc([C@@H](C(=O)Nc2cccc([N+](=O)[O-])c2)N(C(=O)c2cc3ccccc3[nH]2)c2cccc([N+](=O)[O-])c2)cc1
97.8% (inactive)

Request the reported growth associated with COc1ccc(-n2c(=O)n(-c3ccc(-c4nc5ccc(F)cc5s4)cc3)c(=O)c3cccnc32)cc1
102% (inactive)

Request the reported growth associated with COc1ccc(Cn2cc3c(c2-c2cc(OC)c(OC)c(OC)c2)CCc2c(CO)noc2-3)cc1
-36.2% (active)

Request the reported growth associated with CN(C)CCS(=O)(=O)CCN(C)C
110% (inactive)

Request the reported growth associated with Nc1nc(N)c(N=Nc2ccc(C(=O)O)cc2)c(N)n1
90% (inactive)

Request the reported growth associated with COc1cc(OC)c(/C=C/C(=O)c2c(OC)cccc2OC)c(OC)c1
7.89% (active)

Request the reported growth associated with Cc1ccc(C(=O)c2oc3ccc4c(C)cc(=O)oc4c3c2C)cc1
7.9% (active)

Request the reported growth associated with Cc1ccc(S(=O)(=O)Oc2ccc3sc4c(CO)ccc(NCCN(C)C)c4c(=O)c3c2)cc1
-51.1% [100 µM] (active)

Request the reported growth associated with CCCCS(=O)(=O)Oc1ccc(-c2nc(C)c(C(=O)OCC)s2)cc1C=O
37.7% (inactive)

Request the reported growth associated with COc1ccc(-c2nc(SCC(=O)Nc3nc4ccc(C)cc4s3)[nH]c(=O)c2C#N)cc1OC
105% (inactive)

Request the reported growth associated with Clc1ncccc1Nc1ccc2nnc(-c3ccncc3)n2n1
89.5% (inactive)

Request the reported growth associated with O/N=C/c1ccncc1
110% (inactive)

Request the reported growth associated with O=C(CN1CCN(c2cc3c(cc2F)c(=O)c(C(=O)O)cn3C2CC2)CC1)Nc1cc(=O)[nH]c(=O)[nH]1
103% (inactive)
